experiment: chemical genetic growth profiling, strain panel (AID 1159580);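 further: tested at 20 µM; growth read once vehicle control cultures reached saturation at 30 °C; 1 = growth at the plate median or of vehicle wells; lower values mean less growth of the strain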; conditions: S. cerevisiae deletion strains, growth OD, locus YBR231C, strain swc5, hits give low values
Out of some 5,500 compounds screened, about 2,000 (36%) were called active. Not shown: some 18% with an inconclusive outcome. This is one part of the list.
quantity measured: normalized growth
Please give only the number in your answer, with no unit.

Example entries and their recorded answers appear below.
# molecule, measured value
rows = [
    ("NC1(C(=O)O)CC1", 1.02),
    ("COC1C=CC23c4cc5c(cc4CN(CC2O)[C@@H]3C1)OCO5 (stereo partly specified)", 0.963),
    ("CC1C/C=C/C=C/C=C/C=C/C(O[C@@H]2O[C@H](C)[C@@H](O)[C@H](N)[C@@H]2O)CC2OC(O)(CC(O)CC3OC3/C=C/C(=O)O1)CC(O)C2C(=O)O (stereo partly specified)", 0.981),
    ("Cc1onc(-c2ccccc2)c1-c1ccc(S(N)(=O)=O)cc1", 1),
    ("Nc1nc(F)nc2c1ncn2[C@@H]1O[C@H](COP(=O)(O)O)[C@@H](O)[C@@H]1O", 0.999),
    ("C[C@]12C=CC(=O)C=C1CCC1C2[C@@H](O)C[C@@]2(C)C1CC[C@]2(O)C(=O)CO (stereo partly specified)", 0.991),
    ("NC(=O)CS(=O)C(c1ccccc1)c1ccccc1 (stereo unspecified)", 1),
    ("COc1cc(C)c2c(=O)cc(-c3ccccc3)oc2c1", 0.925),
    ("O=C(O)CCCCCCCC(=O)O", 1.01),
    ("CC1(C)C(=O)[C@@H]2O[C@@H]2[C@@]2(C)C1C[C@@H](O)[C@]1(C)C2CC[C@@]2(C)[C@H](c3ccoc3)OC(=O)C3OC321 (stereo partly specified)", 0.995),
]

[in] Write down normalized growth measured for item CC(=O)OCC(=O)[C@@]1(O)CCC2C3CCC4=CC(=O)C=CC4(C)C3[C@@H](O)C[C@@]21C (stereo partly specified)
[out] 0.978

[in] Write down normalized growth measured for item CC(=O)C1CCC2C3CCC4C[C@H](O)CCC4(C)C3C[C@H](O)C12C (stereo partly specified)
[out] 0.993

[in] Write down normalized growth measured for item COc1ccc(-c2oc3cc(OC)c(OC)c(OC)c3c(=O)c2OC)cc1
[out] 0.93

[in] Write down normalized growth measured for item CC(=O)C1CC[C@H]2C3CC[C@H]4C[C@H](O)CC[C@]4(C)C3CC[C@]12C (stereo partly specified)
[out] 1.01

[in] Write down normalized growth measured for item COc1ccc2oc3ccccc3c(=O)c2c1
[out] 0.76

[in] Write down normalized growth measured for item NCCCCC(=O)O
[out] 1.02

[in] Write down normalized growth measured for item CC(=O)O[C@@H]1CC2C(C)(C)C(=O)C3OC3[C@]2(C)C2CC[C@@]3(C)[C@H](c4ccoc4)OC(=O)C4OC43[C@@]21C (stereo partly specified)
[out] 0.975

[in] Write down normalized growth measured for item CC(=O)O[C@@H]1CC2C(C)(C)[C@@H](O)CC[C@]2(C)C2CC[C@@]3(C)[C@H](c4ccoc4)OC(=O)[C@H]4O[C@]43[C@@]21C (stereo partly specified)
[out] 0.995

[in] Write down normalized growth measured for item NCCCCCC(=O)O
[out] 1.01

[in] Write down normalized growth measured for item O=C1CCCN1CC#CCN1CCCC1
[out] 1.03

[in] Write down normalized growth measured for item Fc1ccc([C@@H]2CCNC[C@H]2COc2ccc3c(c2)OCO3)cc1
[out] 0.992
